target: Cytomegalovirus protease/assemblin (Human cytomegalovirus); test: Potency against human cytomegalovirus protease in HCMV pNA assay
Here, each record is paired with measured Ki data.
Measured metric: Ki (µM)

* COc1ccc2sc(N3C(=O)[C@@H](C)[C@@H]4[C@@H]3CCN4C(=O)[C@@H]3CCCN3C(=O)Nc3ccc(C(C)C)cc3)nc2c1 | 0.022
* CC(C)c1ccc(NC(=O)N2CCC[C@H]2C(=O)N2CC[C@H]3[C@H]2[C@H](C)C(=O)N3c2nc3cc(S(=O)(=O)C(F)F)ccc3s2)cc1 | 0.01
* CC(C)c1ccc(NC(=O)N2CCC[C@H]2C(=O)N2CC[C@H]3[C@H]2[C@H](C)C(=O)N3c2nc3c(Cl)cccc3s2)cc1 | 0.041
* CC(C)c1ccc(NC(=O)N2CCC[C@H]2C(=O)N2CC[C@H]3[C@H]2[C@H](C)C(=O)N3c2nc3ccc(F)cc3s2)cc1 | 0.017
